Source listed as paper PMC8015227.

# Test system: cryopreserved human hepatocytes
# method_description: Metabolic stability in cryopreserved human hepatocytes
# Format: in vitro ADME
# condition_info: supplement CSV, in brackets; final time point 240 min
experimental_readout: HLH percentage of substrate left at the final time point of analysis (%)

- compound: "Cc1ncsc1-c1ccc([C@H](C)NC(=O)[C@@H]2C[C@@H](O)CN2C(=O)[C@@H](NC(=O)CCCCn2cc(CN3CCN(C(=O)c4cc(Cc5n[nH]c(=O)c6ccccc56)ccc4F)CC3)nn2)C(C)(C)C)cc1"
  recorded_measurement: 84.3
- compound: "Cc1ncsc1-c1ccc([C@H](C)NC(=O)[C@@H]2C[C@@H](O)CN2C(=O)[C@@H](NC(=O)CCN2CCN(C(=O)C[C@@H]3N=C(c4ccc(Cl)cc4)c4c(sc(C)c4C)-n4c(C)nnc43)CC2)C(C)(C)C)cc1"
  recorded_measurement: 70.0
- compound: "Cc1ncsc1-c1ccc([C@H](C)NC(=O)[C@@H]2C[C@@H](O)CN2C(=O)[C@@H](NC(=O)CCCCn2cc(CCCC(=O)N3CCN(C(=O)c4cc(Cc5n[nH]c(=O)c6ccccc56)ccc4F)CC3)nn2)C(C)(C)C)cc1"
  recorded_measurement: 84.7
- compound: "Cl.O=C(c1cc(Cc2n[nH]c(=O)c3ccccc23)ccc1F)N1CCNCC1 [Compound 45, reference compound]"
  recorded_measurement: 77.7
